- System: Klebsiella pneumoniae
- Protocol notes: Antimicrobial activity against Klebsiella pneumoniae FZ49T expressing IMP-8, TEM-1, CTX-M-14, qnrB2, aac(6')-Ib by CLSI method
- Assay type: functional
Property measured: MIC (µg/mL)

Molecule | Property measured | Qualifier symbol | Experimental result
C[C@@H](O)[C@H]1C(=O)N2C(C(=O)O)=C(S[C@@H]3CN[C@H](C(=O)Nc4cccc(C(=O)O)c4)C3)[C@H](C)[C@H]12 | MIC | = | 4
CO/N=C(\C(=O)N[C@@H]1C(=O)N2C(C(=O)O)=C(COC(C)=O)CS[C@H]12)c1csc(N)n1 | MIC | = | 128
C[C@@H](O)[C@H]1C(=O)N2C(C(=O)O)=C(S[C@@H]3CN[C@H](C(=O)N(C)C)C3)[C@H](C)[C@H]12 | MIC | = | 1
CC(C)(O/N=C(\C(=O)N[C@@H]1C(=O)N2C(C(=O)[O-])=C(C[n+]3ccccc3)CS[C@H]12)c1csc(N)n1)C(=O)O | MIC | > | 256
CN(C)c1cc(NC(=O)CNC(C)(C)C)c(O)c2c1C[C@H]1C[C@H]3[C@H](N(C)C)C(O)=C(C(N)=O)C(=O)[C@@]3(O)C(O)=C1C2=O | MIC | = | 0.06
C[C@@H](O)[C@H]1C(=O)N2C(C(=O)O)=C(SCCNC=N)C[C@H]12 [IMIPENEM ANHYDROUS] | MIC | = | 4
NCC[C@H](O)C(=O)N[C@@H]1C[C@H](N)[C@@H](O[C@H]2O[C@H](CN)[C@@H](O)[C@H](O)[C@H]2O)[C@H](O)[C@H]1O[C@H]1O[C@H](CO)[C@@H](O)[C@H](N)[C@H]1O | MIC | > | 256
CO[C@@]1(NC(=O)Cc2cccs2)C(=O)N2C(C(=O)O)=C(COC(N)=O)CS[C@@H]21 | MIC | > | 256

---

- Test system: Klebsiella aerogenes
- Protocol notes: Antimicrobial activity against Enterobacter aerogenes PU41T expressing CTX-M-14, DHA-1, qnrS1 by CLSI method
- Type: functional
Threshold 0.5 µg/mL. MIC below it: fulfilled. MIC at it or above: not fulfilled.

Smi | Answer label
CO/N=C(\C(=O)N[C@@H]1C(=O)N2C(C(=O)O)=C(COC(C)=O)CS[C@H]12)c1csc(N)n1 | not fulfilled
CC(C)(O/N=C(\C(=O)N[C@@H]1C(=O)N2C(C(=O)[O-])=C(C[n+]3ccccc3)CS[C@H]12)c1csc(N)n1)C(=O)O | not fulfilled
C[C@@H](O)[C@H]1C(=O)N2C(C(=O)O)=C(S[C@@H]3CN[C@H](C(=O)N(C)C)C3)[C@H](C)[C@H]12 | fulfilled
CN(C)c1cc(NC(=O)CNC(C)(C)C)c(O)c2c1C[C@H]1C[C@H]3[C@H](N(C)C)C(O)=C(C(N)=O)C(=O)[C@@]3(O)C(O)=C1C2=O | fulfilled
C[C@@H](O)[C@H]1C(=O)N2C(C(=O)O)=C(S[C@@H]3CN[C@H](C(=O)Nc4cccc(C(=O)O)c4)C3)[C@H](C)[C@H]12 | fulfilled
NCC[C@H](O)C(=O)N[C@@H]1C[C@H](N)[C@@H](O[C@H]2O[C@H](CN)[C@@H](O)[C@H](O)[C@H]2O)[C@H](O)[C@H]1O[C@H]1O[C@H](CO)[C@@H](O)[C@H](N)[C@H]1O | not fulfilled
CO[C@@]1(NC(=O)Cc2cccs2)C(=O)N2C(C(=O)O)=C(COC(N)=O)CS[C@@H]21 | not fulfilled

The values you see were collected from ChEMBL document CHEMBL1212738.
